Molecular target: hH4R (Homo sapiens, UniProt Q9H3N8)
Sequence (Q9H3N8 whole entry): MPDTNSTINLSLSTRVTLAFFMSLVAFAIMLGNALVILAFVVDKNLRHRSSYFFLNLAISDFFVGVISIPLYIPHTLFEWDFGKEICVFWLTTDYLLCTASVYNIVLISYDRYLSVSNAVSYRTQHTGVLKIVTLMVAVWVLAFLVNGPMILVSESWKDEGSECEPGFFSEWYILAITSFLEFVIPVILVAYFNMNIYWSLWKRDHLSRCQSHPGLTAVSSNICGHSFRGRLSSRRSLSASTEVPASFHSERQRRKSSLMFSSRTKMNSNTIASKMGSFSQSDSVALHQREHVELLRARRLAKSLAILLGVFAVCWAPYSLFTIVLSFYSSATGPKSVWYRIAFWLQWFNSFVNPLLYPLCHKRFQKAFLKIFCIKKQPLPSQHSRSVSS
pKi: −log10 of the molar value.
# pKi per record follows

# annotated cases, reported pKi shown
O=C(O)C(=O)O.c1ccc2cc(OCCCCCCN3CCCCCC3)ccc2c1 : < 5.00
Fc1ccc(OCCCCCCN2CCCCCC2)cc1.O=C(O)C(=O)O : < 5.00

hH4R (Homo sapiens, UniProt Q9H3N8) assay, compound O=C(O)C(=O)O.O=C(c1ccccc1)c1ccc(OCCCCCCN2CCCCCC2)cc1 , recorded pKi = < 5.00

---

// values below are pKi; system is UniProt P35367
Sequence (P35367 whole entry): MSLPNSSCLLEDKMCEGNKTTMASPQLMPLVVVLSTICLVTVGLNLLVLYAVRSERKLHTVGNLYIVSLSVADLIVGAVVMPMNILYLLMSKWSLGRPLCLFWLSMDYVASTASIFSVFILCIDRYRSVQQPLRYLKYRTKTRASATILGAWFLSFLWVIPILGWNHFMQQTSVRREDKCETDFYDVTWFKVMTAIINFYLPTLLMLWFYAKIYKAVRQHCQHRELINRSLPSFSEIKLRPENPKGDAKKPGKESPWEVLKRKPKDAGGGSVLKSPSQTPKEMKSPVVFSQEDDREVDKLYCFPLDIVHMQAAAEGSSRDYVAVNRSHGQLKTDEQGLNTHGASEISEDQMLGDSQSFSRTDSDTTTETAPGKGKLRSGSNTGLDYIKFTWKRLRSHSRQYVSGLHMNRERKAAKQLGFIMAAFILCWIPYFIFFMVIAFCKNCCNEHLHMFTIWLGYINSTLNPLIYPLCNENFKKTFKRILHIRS
The quantity pKi is defined as the negative base-10 logarithm of the molar concentration.

O=C(O)C(=O)O.c1ccc2cc(OCCCCCCN3CCCCCC3)ccc2c1 : 5.90
O=C(O)C(=O)O.O=C(c1ccccc1)c1ccc(OCCCCCCN2CCCCCC2)cc1 : 6.04

Alright, here's another molecule for you.
Reported pKi (UniProt P35367) for entry Fc1ccc(OCCCCCCN2CCCCCC2)cc1.O=C(O)C(=O)O is 5.87
